Test target: INaL v1.6 (Nav late current, recombinant sodium channels) (Homo sapiens, UniProt Q9UQD0)
Construct: expressed in transfected cells; host or cells: HEK-293
Sequence (Q9UQD0 whole entry): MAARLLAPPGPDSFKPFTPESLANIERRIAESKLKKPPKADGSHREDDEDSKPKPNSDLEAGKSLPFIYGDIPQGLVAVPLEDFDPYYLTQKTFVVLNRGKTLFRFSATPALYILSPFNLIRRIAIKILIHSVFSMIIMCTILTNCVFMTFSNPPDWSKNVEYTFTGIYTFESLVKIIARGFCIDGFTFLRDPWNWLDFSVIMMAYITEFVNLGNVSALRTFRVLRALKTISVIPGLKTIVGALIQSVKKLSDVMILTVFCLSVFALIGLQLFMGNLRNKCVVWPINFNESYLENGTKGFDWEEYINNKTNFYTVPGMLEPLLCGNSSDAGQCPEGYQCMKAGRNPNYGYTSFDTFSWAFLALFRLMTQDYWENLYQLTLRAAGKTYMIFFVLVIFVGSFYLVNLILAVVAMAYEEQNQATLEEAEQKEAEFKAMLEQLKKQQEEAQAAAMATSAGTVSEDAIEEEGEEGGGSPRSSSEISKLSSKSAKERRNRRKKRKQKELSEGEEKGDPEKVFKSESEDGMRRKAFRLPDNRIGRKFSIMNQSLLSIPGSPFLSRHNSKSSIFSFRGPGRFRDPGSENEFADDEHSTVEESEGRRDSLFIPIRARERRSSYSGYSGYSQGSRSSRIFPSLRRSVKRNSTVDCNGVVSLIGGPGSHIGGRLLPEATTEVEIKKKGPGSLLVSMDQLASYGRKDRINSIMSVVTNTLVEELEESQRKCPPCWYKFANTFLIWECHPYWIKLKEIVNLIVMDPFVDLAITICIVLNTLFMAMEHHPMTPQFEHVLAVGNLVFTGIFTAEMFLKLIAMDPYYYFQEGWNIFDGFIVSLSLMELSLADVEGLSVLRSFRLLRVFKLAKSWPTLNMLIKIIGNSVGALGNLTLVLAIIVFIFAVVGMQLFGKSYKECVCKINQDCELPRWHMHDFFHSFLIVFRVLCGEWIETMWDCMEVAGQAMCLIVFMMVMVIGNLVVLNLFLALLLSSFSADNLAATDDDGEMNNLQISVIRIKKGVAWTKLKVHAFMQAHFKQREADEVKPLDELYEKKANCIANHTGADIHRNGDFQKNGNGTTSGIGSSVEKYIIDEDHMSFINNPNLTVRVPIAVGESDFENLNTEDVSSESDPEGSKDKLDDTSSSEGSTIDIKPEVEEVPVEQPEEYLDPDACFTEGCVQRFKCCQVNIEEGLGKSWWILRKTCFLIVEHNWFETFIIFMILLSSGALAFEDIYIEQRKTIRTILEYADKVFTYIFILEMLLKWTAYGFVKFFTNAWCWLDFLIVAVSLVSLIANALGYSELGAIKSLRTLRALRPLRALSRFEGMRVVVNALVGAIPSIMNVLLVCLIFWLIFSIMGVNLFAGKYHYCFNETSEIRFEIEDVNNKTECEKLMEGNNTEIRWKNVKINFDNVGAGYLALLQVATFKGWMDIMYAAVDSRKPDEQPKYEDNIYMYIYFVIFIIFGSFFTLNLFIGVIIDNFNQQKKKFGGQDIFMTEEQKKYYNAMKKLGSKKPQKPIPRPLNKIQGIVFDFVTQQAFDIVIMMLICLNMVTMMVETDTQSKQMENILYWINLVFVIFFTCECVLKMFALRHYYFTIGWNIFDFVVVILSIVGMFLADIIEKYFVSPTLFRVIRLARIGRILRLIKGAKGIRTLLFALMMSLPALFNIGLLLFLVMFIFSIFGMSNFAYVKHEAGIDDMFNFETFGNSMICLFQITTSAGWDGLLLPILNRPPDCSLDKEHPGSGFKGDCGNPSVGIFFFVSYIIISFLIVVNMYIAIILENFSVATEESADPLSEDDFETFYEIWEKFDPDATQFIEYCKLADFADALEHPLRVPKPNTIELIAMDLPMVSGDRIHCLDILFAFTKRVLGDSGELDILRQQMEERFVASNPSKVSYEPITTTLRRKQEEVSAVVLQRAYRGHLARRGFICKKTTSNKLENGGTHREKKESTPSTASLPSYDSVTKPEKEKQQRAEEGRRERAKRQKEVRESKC
Method summary: PatchXpress electrophysiology, ATX-II evoked Nav late current (INaL) in HEK-293 cells expressing recombinant sodium channels
Type: cell-based
Measurement context: HEK293, compound at 1 μM, late current evoked by ATX-II 300 nM, steady state block
Reported metric: inhibition at 1 µM

-- ask Looking for the measured inhibition at 1 µM of Fc1cc(-c2ccc3nnc(C(F)(F)F)n3c2)cnc1OC1(C(F)(F)F)COC1 , can you help?
-- reply 50 to 75%

-- ask Looking for the measured inhibition at 1 µM of C[C@H](Oc1ncc(-c2ccc3nnc(C(F)F)n3c2)cc1F)C(F)(F)F , can you help?
-- reply > 75%

-- ask Looking for the measured inhibition at 1 µM of Fc1cc(-c2ccc3nnc(C(F)(F)F)n3c2)cnc1OC1(C(F)(F)F)CCC1 , can you help?
-- reply > 75%

-- ask Looking for the measured inhibition at 1 µM of Fc1cc(-c2ccc3nnc(C(F)F)n3c2)cnc1OCC(F)(F)F , can you help?
-- reply 50 to 75%

-- ask Looking for the measured inhibition at 1 µM of C[C@@H](Oc1ncc(-c2ccc3nnc(C(F)(F)F)n3c2)cc1F)C(F)(F)F , can you help?
-- reply > 75%

-- ask Looking for the measured inhibition at 1 µM of C[C@H](Oc1ncc(-c2ccc3nnc(C(F)(F)F)n3c2)cc1F)C(F)(F)F , can you help?
-- reply > 75%

-- ask Looking for the measured inhibition at 1 µM of C[C@@H](Oc1ncc(-c2ccc3nnc(C(F)F)n3c2)cc1F)C(F)(F)F , can you help?
-- reply > 75%

-- ask Looking for the measured inhibition at 1 µM of CC(C)(Oc1ncc(-c2ccc3nnc(C(F)(F)F)n3c2)cc1F)C(F)(F)F , can you help?
-- reply > 75%

-- ask Looking for the measured inhibition at 1 µM of CC(C)(Oc1ncc(-c2ccc3nnc(C(F)F)n3c2)cc1F)C(F)(F)F , can you help?
-- reply > 75%

-- ask Looking for the measured inhibition at 1 µM of Fc1cc(-c2ccc3nnc(C(F)(F)F)n3c2)cnc1OCC(F)(F)F , can you help?
-- reply > 75%
